Reference source: patent US11345666B2

inhibition at 0.22 µM by entry:
target: full-length human RORγt (Homo sapiens (Human)); assay: RORγt (full-length human) reporter assay, conditions A or B; format: cell-based; conditions: 0.22 μM compound concentration (******); read-out: RORγt (FL) Reporter Assay A or B, % inhibition
Hi! Could you send only the number? It should be in %, unit omitted.

These recorded examples may help you get a feel for the data.
CCc1nc(C(=O)NC[C@H]2CC[C@H](S(C)(=O)=O)CC2)c(Cl)n1-c1ccc(CC(C)(C)C(F)(F)F)c(OC)c1 | 66
CCc1nc(C(=O)NC[C@]2(O)CC[C@@H](S(C)(=O)=O)CC2)c(Cl)n1-c1ccc(CC(C(F)(F)F)C(F)(F)F)c(F)c1 | 80
CCc1nc(C(=O)NC[C@H]2CC[C@H](S(C)(=O)=O)CC2)c(Cl)n1-c1ccc(CC(C)(C)C(F)(F)F)cc1F | 65

--- query ---
Ask: Would you mind telling me what inhibition at 0.22 µM value was observed for CCc1nc(C(=O)NC[C@H]2CC[C@H](S(C)(=O)=O)CC2)c(Cl)n1-c1ccc(CC(C(F)(F)F)C(F)(F)F)cc1F ?
Reply: 99

====

Property: pIC50; scope: individual molecules
target: full-length human RORγt (Homo sapiens (Human)); assay: RORγt (full-length human) reporter assay, conditions A or B; settings: HEK293T cells; read-out: RORγt (FL) Reporter Assay A or B, IC50
Value format note: pIC50 is -log10 of concentration (mol/L); just state the number.

Below, each entry is followed by its recorded pIC50 result.
Cc1nc(C(=O)NC[C@H]2CC[C@H](S(C)(=O)=O)CC2)c(C#N)n1-c1ccc(CC(C)(C)C(F)(F)F)cc1OC(F)F | 7.96
CCc1nc(C(=O)NC[C@]2(O)CC[C@@H](S(C)(=O)=O)CC2)c(Cl)n1-c1ccc(CC(C(F)(F)F)C(F)(F)F)cc1F | 8.17
CCc1nc(C(=O)NC[C@H]2CC[C@H](S(C)(=O)=O)CC2)c(F)n1-c1ccc(CC(C)(C)C(F)(F)F)cc1OC(F)F | 7.43
CCc1nc(C(=O)NC[C@H]2CC[C@H](S(C)(=O)=O)CC2)c(Cl)n1-c1ncc(CC(C)(C)C(F)(F)F)cc1OC | 7.96

Ask: I'd like to know its pIC50. The molecule in question is CCc1nc(C(=O)NC[C@H]2CC[C@H](S(C)(=O)=O)CC2)c(C#N)n1-c1ccc(CCC(F)(F)F)cc1F
Reply: 6.48

Ask: What value of pIC50 has been reported for the following molecule? C#Cc1c(C(=O)NC[C@]2(O)CC[C@@H](S(C)(=O)=O)CC2)nc(CC)n1-c1ccc(CC(C)(C)C(F)(F)F)cc1OC(F)F
Reply: 8.49

Ask: Fill blank: measured pIC50 of the molecule CCc1nc(C(=O)NC[C@]2(O)CC[C@@H](S(C)(=O)=O)CC2)c(C)n1-c1ncc(CC(C(F)(F)F)C(F)(F)F)cc1OC(F)F is ____.
Reply: 6.36

====

target: full-length human RORγt (Homo sapiens (Human)); assay: RORγt (full-length human) reporter assay, conditions A or B; settings: HEK293T cells; read-out: RORγt (FL) Reporter Assay A or B, IC50
Items are presented alongside their recorded pIC50.
Here pIC50 is given on a logarithmic scale as minus log10 of the concentration in mol/L.

CCc1nc(C(=O)NC[C@H]2CC[C@H](S(C)(=O)=O)CC2)c(Cl)n1-c1ncc(CCCC(F)(F)F)cc1OC(F)F [Example 48] | 7.30
C#Cc1c(C(=O)NC[C@H]2CC[C@H](S(C)(=O)=O)CC2)nc(CC)n1-c1ccc(CC(C)(C)C(F)(F)F)cc1OC(F)F [Example 41] | 8.57

With those in mind, consider the next molecule.
Ask: What value of pIC50 has been reported for the following molecule? C#Cc1c(C(=O)NC[C@]2(C#N)CC[C@@H](S(C)(=O)=O)CC2)nc(CC)n1-c1ccc(CC(C)(C)C(F)(F)F)cc1OC(F)F [Example 39]
Reply: 8.10

====

Target: full-length human RORγt (Homo sapiens (Human))
Test: RORγt (full-length human) reporter assay, conditions A or B
Details: HEK293T cells; read-out: RORγt (FL) Reporter Assay A or B, IC50
Source text: RORγt (Full-Length Human) Reporter Assay: Cells used in this assay were transiently co-transfected with three different plasmids, one expressing the GAL4-DNA binding domain (DBD)-RORγt fusion protein under control of a CMV promoter (NH2-Gal4-DBD:RORC—COOH in pCMV-BD, Stratagene #211342), and two reporter plasmids—the firefly luciferase reporter under control of a GAL4 promoter (pFR-Luc 2×GAL4) and Renilla luciferase reporter under control of CMV promoter (pRL-CMV, Promega #E2261). […]
quantity: IC50 (nM)
Form entry: value (nM) — number only.

CCc1nc(C(=O)NC[C@H]2CC[C@H](S(C)(=O)=O)CC2)c(Cl)n1-c1c(F)cc(CC(C)C(F)(F)F)cc1F (some centres unmarked) | 23

Ask: Return reported IC50; argument: CCc1nc(C(=O)NC[C@H]2CC[C@H](S(C)(=O)=O)CC2)c(C#N)n1-c1ccc(CCC(F)(F)F)cc1OC
Reply: 94

Ask: // returns reported IC50 for input CCc1nc(C(=O)NC[C@H]2CC[C@H](S(C)(=O)=O)CC2)c(Cl)n1-c1ccc(CC(C)C(F)(F)F)cc1OC (single isomer, unassigned) [Example 6]
Reply: 6

Ask: # get_value(readout='IC50', item= CCc1nc(C(=O)NC[C@]2(O)CC[C@@H](S(C)(=O)=O)CC2)c(Cl)n1-c1ccc(CC(C)(C)C(F)(F)F)cc1F )
Reply: 36

Ask: Any idea what its IC50 is? The compound is CCc1nc(C(=O)NC[C@H]2CC[C@H](S(C)(=O)=O)CC2)cn1-c1cnc(CCC(F)(F)F)cc1OC
Reply: 3000

Ask: Fill in: IC50 of CCc1cc(CC(C)(C)C(F)(F)F)cnc1-n1c(CC)nc(C(=O)NC[C@H]2CC[C@H](S(C)(=O)=O)CC2)c1Cl is ___
Reply: 59

Ask: Fill in: IC50 of CCc1nc(C(=O)NC[C@]2(O)CC[C@@H](S(C)(=O)=O)CC2)c(Cl)n1-c1c(F)cc(CC(O)(C(F)(F)F)C(F)(F)F)cc1F is ___
Reply: 340

Ask: // lookup IC50 for CCc1nc(C(=O)NC[C@]2(O)CC[C@@H](S(C)(=O)=O)C[C@H]2O)c(Cl)n1-c1ncc(CC(C)(C)C(F)(F)F)cc1OC(F)F (stereo in doubt)
Reply: 190

Ask: Request the reported IC50 associated with CCc1nc(C(=O)NC[C@]2(C#N)CC[C@@H](S(C)(=O)=O)CC2)c(F)n1-c1ccc(CC(C)(C)C(F)(F)F)cc1OC(F)F
Reply: 19

Ask: Reported IC50, compound CCc1nc(C(=O)NC[C@H]2CC[C@H](S(C)(=O)=O)CC2)c(C)n1-c1ccc(CC(C)(C)C(F)(F)F)c(OC)c1 : ____
Reply: 31

Ask: Field request: IC50 | item: CCc1nc(C(=O)NC[C@H]2CC[C@H](S(C)(=O)=O)CC2)c(C#N)n1-c1ncc(CC(C)(C)C(F)(F)F)cc1OC
Reply: 48

====

target: full-length human RORγt (Homo sapiens (Human), UniProt P51449); assay: RORγt (full-length human) reporter assay, conditions A or B; conditions: HEK293T cells; read-out: RORγt (FL) Reporter Assay A or B, IC50
Sequence (P51449 other isoform, or with tags, fused parts or gaps): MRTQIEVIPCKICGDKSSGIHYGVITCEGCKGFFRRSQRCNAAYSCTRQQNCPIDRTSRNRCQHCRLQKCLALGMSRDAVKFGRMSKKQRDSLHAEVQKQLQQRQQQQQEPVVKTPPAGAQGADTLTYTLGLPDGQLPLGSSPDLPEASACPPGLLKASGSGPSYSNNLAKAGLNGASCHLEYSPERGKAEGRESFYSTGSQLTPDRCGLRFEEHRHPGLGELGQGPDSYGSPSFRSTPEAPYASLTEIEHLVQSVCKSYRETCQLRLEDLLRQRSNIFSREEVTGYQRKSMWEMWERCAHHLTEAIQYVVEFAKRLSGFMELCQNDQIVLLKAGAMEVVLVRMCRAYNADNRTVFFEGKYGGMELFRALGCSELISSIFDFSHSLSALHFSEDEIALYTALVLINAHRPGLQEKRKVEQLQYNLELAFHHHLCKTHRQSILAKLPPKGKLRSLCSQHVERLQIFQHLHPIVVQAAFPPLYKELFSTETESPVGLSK
Criterion: IC50 strictly less than 100 nM. Met: 1 (yes). Not met: 0 (no).

Reference set (3 entries):
CCc1nc(C(=O)NC[C@]2(O)CC[C@@H](S(C)(=O)=O)CC2)c(C(N)=O)n1-c1ccc(CCC(F)(F)F)cc1F | 0 (no)
CCc1nc(C(=O)NC[C@]2(O)CC[C@@H](S(C)(=O)=O)CC2)c(C)n1-c1ccc(CC(C(F)(F)F)C(F)(F)F)cc1F | 1 (yes)
CCc1nc(C(=O)NC[C@H]2CC[C@H](S(C)(=O)=O)CC2)c(Cl)n1-c1ccc(CC(C)(C)C(F)(F)F)cc1F | 1 (yes)

Ask: Problem: For the molecule CCc1nc(C(=O)NC[C@H]2CC[C@H](S(C)(=O)=O)CC2)c(C)n1-c1ncc(CC(C)(C)C(F)(F)F)cc1OC(F)F , is IC50 under 100 nM?
Reply: 1 (yes)

Ask: IC50 under 100 nM? Item: CCc1nc(C(=O)NC[C@]2(O)CC[C@@H](S(C)(=O)=O)CC2)c(C#N)n1-c1ncc(CC(C)(C)C(F)(F)F)cc1OC
Reply: 0 (no)

Ask: Regarding CCc1nc(C(=O)NC[C@H]2CC[C@H](S(C)(=O)=O)CC2)c(C#N)n1-c1ccc(CC(C)(C)C(F)(F)F)cc1OC(F)(F)F , kindly confirm whether its IC50 is beneath 100 nM.
Reply: 1 (yes)

Ask: Find out if reported IC50 for CCc1nc(C(=O)NC[C@]2(O)CC[C@@H](S(C)(=O)=O)CC2)c(C)n1-c1ncc(CC(C)(C)C(F)(F)F)cc1OC(F)F is less than 100 nM
Reply: 0 (no)

Ask: Regarding CCc1nc(C(=O)NC[C@H]2CC[C@H](S(C)(=O)=O)CC2)c(F)n1-c1ccc(CCC(F)(F)F)cc1OC , kindly confirm whether its IC50 is beneath 100 nM.
Reply: 0 (no)

Ask: Is IC50 of CCc1nc(C(=O)NC[C@H]2CC[C@H](S(C)(=O)=O)CC2)c(Cl)n1-c1ccc(CCC(F)(F)F)cc1F strictly below 100 nM?
Reply: 1 (yes)

Ask: # strict comparison: is reported IC50 < 100 nM? input = CCc1nc(C(=O)NC[C@@]2(O)CC[C@H](S(C)(=O)=O)C[C@@H]2O)c(Cl)n1-c1ncc(CC(C)(C)C(F)(F)F)cc1OC(F)F (stereo in doubt)
Reply: 0 (no)

Ask: I'd appreciate it if you could check whether COc1cc(CC(C)(C)C(F)(F)F)ccc1-n1cc(C(=O)NC[C@H]2CC[C@H](S(C)(=O)=O)CC2)nc1C has IC50 smaller than 100 nM.
Reply: 0 (no)

Ask: Just wondering, is IC50 of CCc1nc(C(=O)NC[C@H]2CC[C@H](S(C)(=O)=O)CC2)c(C)n1-c1ncc(CC(C(F)(F)F)C(F)(F)F)cc1OC(F)F below 100 nM?
Reply: 1 (yes)

Ask: Hi there! Is IC50 for CCc1nc(C(=O)NC[C@H]2CC[C@H](S(C)(=O)=O)CC2)c(Cl)n1-c1ncc(CC(C)(C)C(F)(F)F)cc1C below 100 nM, do you know?
Reply: 1 (yes)

Ask: Please check: IC50 for CCc1nc(C(=O)NC[C@@H]2CC[C@@H](S(C)(=O)=O)C[C@H]2O)c(Cl)n1-c1ncc(CC(C(F)(F)F)C(F)(F)F)cc1OC(F)F (stereo in doubt) , strictly under 100 nM or not?
Reply: 0 (no)

Ask: Criterion: IC50 strictly below 100 nM. Is it met by CCc1nc(C(=O)NC[C@]2(O)CC[C@@H](S(C)(=O)=O)CC2)c(C#N)n1-c1ccc(CCC(F)(F)F)cc1OC(F)F ?
Reply: 0 (no)
